assay: Cytotoxicity in HeLa cells, ATP content measured with the ATPlite kit; type: cell-based; settings: human, TOX HELA pCC50
Hi! Could you tag entries with CC50 at 3 days below 50 µM as true (1), and those at or above as false (0)? Much appreciated.

>  <molecule>
CCc1cc(C(=O)N2CCCCCC2C)nc2cc(-c3ccc(NC(=O)Cn4ccnc4)cc3F)nn12 (stereo not shown)

>  <assigned_class>
true (1)

$$$$
>  <molecule>
CCc1cc(C(=O)N2CCCCCC2C)nc2cc(-c3ccccc3F)nn12 (stereo not shown)

>  <assigned_class>
true (1)

$$$$
>  <molecule>
CCc1cc(C(=O)N2CCCCC[C@H]2C)nc2cc(-c3ccc(N(C)[C@H]4C[C@@H](C(=O)O)C4)cc3F)nn12 (racemic)

>  <assigned_class>
false (0)

$$$$
>  <molecule>
CCc1cc(C(=O)N2CCCCC[C@H]2C)nc2cc(-c3ccc(C4CC5(CC(C(=O)O)C5)C4)cc3F)nn12 (stereo partly shown)

>  <assigned_class>
true (1)

$$$$
>  <molecule>
C[C@@H]1CCCCCN1C(=O)c1cc(C2CC2)n2nc(-c3ccc(-n4cc(C(=O)O)cn4)cc3F)cc2n1

>  <assigned_class>
false (0)

$$$$

---

Parameter CC50 at 3 days: see the listing below.
Assay: Cytotoxicity in HeLa cells, ATP content measured with the ATPlite kit
Assay type: cell-based
Conditions: human, TOX HELA pCC50
Experimental: Black 384-well clear-bottom microtiter plates (Corning, Amsterdam, The Netherlands) were filled via acoustic drop ejection using the echo liquid handler (Labcyte, Sunnyvale, Calif.). 200 nL of compound stock solutions (100% DMSO) were transferred to the assay plates. […] Three days post-virus exposure, viral replication was quantified by measuring GFP expression in the cells by an in house developed MSM laser microscope (Tibotec, Beerse, Belgium). […]
test_readout: CC50 at 3 days

>  <compound>
CC1c2ccsc2CCN1C(=O)c1cc(C2CC2)n2nc(-c3ccc(N4CC[C@H](C(=O)O)C4)cc3F)cc2n1 (single isomer, unassigned) [Compound W37]

>  <experimental_value>
45.7 µM

$$$$
>  <compound>
CCc1cc(C(=O)N2CCCC[C@H]2C)nc2cc(-c3ccc(C(N)=O)cc3)nn12 [Compound A27]

>  <experimental_value>
> 25.1 µM

$$$$
>  <compound>
C[C@@H]1CCCCCN1C(=O)c1cc(C2CC2)n2nc(-c3cccc(/C=C/C(=O)O)c3F)cc2n1 [Compound M28]

>  <experimental_value>
17.8 µM

$$$$
>  <compound>
CCc1cc(C(=O)N2CCCCCC2C)nc2cc(-c3ccc(C(=O)NS(C)(=O)=O)cc3F)nn12 (centres unmarked) [Compound L10]

>  <experimental_value>
> 25.1 µM

$$$$
>  <compound>
C[C@@H]1CCCCCN1C(=O)c1cc(C2CCC2)n2nc(-c3cccc(/C=C/C(=O)O)c3F)cc2n1 [Compound M23]

>  <experimental_value>
> 100 µM

$$$$
>  <compound>
C[C@@H]1CCCCCN1C(=O)c1cc(C2CCC2)n2nc(-c3ccc(C4C[C@H]4C(=O)O)cc3F)cc2n1 (mixture of isomers) [Compound O11]

>  <experimental_value>
47.9 µM

$$$$
>  <compound>
CCc1cc(C(=O)N2CCCCCC2C)nc2cc(-c3ccc(-c4cn[nH]c4)cc3F)nn12 (centres unmarked) [Compound F6]

>  <experimental_value>
> 25.1 µM

$$$$
>  <compound>
CCc1cc(C(=O)N2CCCCC[C@H]2C)nc2cc(-c3ccc(N4CCC(C)(C(=O)O)C4)cc3F)nn12 (some centres unmarked) [Compound W17]

>  <experimental_value>
58.9 µM

$$$$
>  <compound>
CC1c2ccsc2CCN1C(=O)c1cc(C2(C)CC2)n2nc(-c3ccc(-c4ccc(C(=O)O)cn4)cc3F)cc2n1 (racemic) [Compound F68]

>  <experimental_value>
51.3 µM

$$$$
>  <compound>
CCc1cc(C(=O)N2CCCCC[C@H]2C)nc2cc(-c3ccc(-c4ccnc(C(=O)O)c4)cc3F)nn12 [Compound F25]

>  <experimental_value>
13.5 µM

$$$$
>  <compound>
CC1CCCCCN1C(=O)c1cc(N2CCCCC2)n2nc(-c3ccc(NC(=O)C4CC4)cc3)cc2n1 (centres unmarked) [Compound E18]

>  <experimental_value>
> 25.1 µM

$$$$
>  <compound>
CCc1cc(C(=O)N2CCc3sccc3C2C)nc2cc(-c3cccc(/C=C/C(=O)O)c3F)nn12 (racemic) [Compound M48]

>  <experimental_value>
> 25.1 µM

$$$$
>  <compound>
CCc1cc(C(=O)N2CCCc3ccccc3C2C)nc2cc(-c3ccc(/C=C/C(=O)O)cc3F)nn12 (centres unmarked) [Compound M18]

>  <experimental_value>
> 25.1 µM

$$$$
>  <compound>
CCc1cc(C(=O)N2CCCCC[C@H]2C)nc2cc(-c3ccc4c(c3F)OC[C@@H](C(=O)O)C4)nn12 (racemic) [Compound F65]

>  <experimental_value>
> 100 µM

$$$$
>  <compound>
CCCCC(C)N(C)C(=O)c1cc(CC)n2nc(-c3ccccc3F)cc2n1 (centres unmarked) [Compound A17]

>  <experimental_value>
40.7 µM

$$$$
>  <compound>
CCc1cc(C(=O)N2CCc3sccc3C2C)nc2cc(-c3ccc(-c4ccc(C(=O)O)cn4)cc3F)nn12 (racemic) [Compound F60]

>  <experimental_value>
> 25.1 µM

$$$$
>  <compound>
CCc1cc(C(=O)N2CCCCCC2C)nc2cc(-c3ccc(C(=O)NNCC4CC4)cc3F)nn12 (centres unmarked) [Compound L9]

>  <experimental_value>
> 25.1 µM

$$$$
>  <compound>
CCc1cc(C(=O)N2CCCCCC2C)nc2cc(-c3ccc(NC(=O)CCOC)cc3F)nn12 (centres unmarked) [Compound E7]

>  <experimental_value>
> 25.1 µM

$$$$
>  <compound>
CCc1cc(C(=O)N2CCCCCC2C)nc2cc(-c3ccc(NC(=O)C4(C)CC4)cc3F)nn12 (centres unmarked) [Compound E8]

>  <experimental_value>
> 25.1 µM

$$$$
>  <compound>
CCc1cc(C(=O)N2CCCCCC2C)nc2cc(-c3ccc(C#N)cc3F)nn12 (centres unmarked) [Compound H5]

>  <experimental_value>
> 25.1 µM

$$$$
>  <compound>
CCc1cc(C(=O)N2CCCCC[C@H]2C)nc2cc(-c3ccc4c(C(=O)O)coc4c3F)nn12 [Compound F40]

>  <experimental_value>
52.5 µM

$$$$
>  <compound>
CCCC(C)N(C)C(=O)c1cc(CC)n2nc(-c3ccc(NC(=O)NCC4CCCO4)cc3F)cc2n1 (centres unmarked) [Compound B2]

>  <experimental_value>
> 100 µM

$$$$
>  <compound>
CCc1cc(C(=O)N2CCCCCC2C)nc2cc(-c3ccc(NC(=O)CC#N)cc3F)nn12 (centres unmarked) [Compound E6]

>  <experimental_value>
> 25.1 µM

$$$$
>  <compound>
CCc1cc(C(=O)N2CCCCC[C@H]2C)nc2cc(-c3ccc(-c4cc(=O)[nH]o4)cc3F)nn12 [Compound X1]

>  <experimental_value>
> 25.1 µM

$$$$
>  <compound>
CCc1cc(C(=O)N2CCCCCC2C)nc2cc(-c3ccc(C(=O)NCc4ccco4)cc3F)nn12 (centres unmarked) [Compound L7]

>  <experimental_value>
> 25.1 µM

$$$$
>  <compound>
CCc1cc(C(=O)N2CCc3sccc3[C@H]2C)nc2cc(-c3ccc(-n4cc(C(=O)O)cn4)cc3F)nn12 (racemic) [Compound W40]

>  <experimental_value>
36.3 µM

$$$$
>  <compound>
C[C@@H]1CCCCCN1C(=O)c1cc(C2(C)CC2)n2nc(-c3ccc(N4CC[C@H](C(=O)O)C4)cc3F)cc2n1 [Compound W30]

>  <experimental_value>
50.1 µM

$$$$
>  <compound>
CNc1cc(C(=O)N2CCc3ccccc3[C@H]2C)nc2cc(-c3ccc(/C=C/C(=O)O)cc3F)nn12 [Compound M14]

>  <experimental_value>
15.8 µM

$$$$
>  <compound>
CCc1cc(C(=O)N2CCCCC[C@H]2C)nc2cc(-c3ccc(C(=O)O)cc3F)nn12 [Compound K5]

>  <experimental_value>
> 25.1 µM

$$$$

Data provenance: patent US11084826B2
